Molecular target: recombinantly produced human-NGF (human, UniProt P01138 122-241, limits assumed)
Sequence (P01138 122-241 limits assumed): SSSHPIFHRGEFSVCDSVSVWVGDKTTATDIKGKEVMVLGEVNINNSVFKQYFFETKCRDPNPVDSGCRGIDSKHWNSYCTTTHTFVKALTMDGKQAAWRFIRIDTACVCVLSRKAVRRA
Test: ELISA, human NGF coated, IgG titrated
Lab note: compare EC50 with 0.02 ng/mL, writing yes if less and no if equal or more.

binder	assigned.label
Ab26 (antibody, human IgG1, V domains shown) VH: EVQLVQSGAEVKKPGATVKISCKVSGYSFITYWISWVQQAPGKGLEWMGAIDPSDSDARYSPSFQGRVTITADKSTDTAYMELSSLRSEDTAVYYCAKSDPGYSGYSLLYGFDSWGQGTLVTVSS VL: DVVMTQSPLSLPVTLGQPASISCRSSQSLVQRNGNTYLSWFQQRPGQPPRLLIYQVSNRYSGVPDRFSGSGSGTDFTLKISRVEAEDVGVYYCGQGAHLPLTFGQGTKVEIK	no

Please determine if Ab46 (antibody, human IgG1, V domains shown) VH: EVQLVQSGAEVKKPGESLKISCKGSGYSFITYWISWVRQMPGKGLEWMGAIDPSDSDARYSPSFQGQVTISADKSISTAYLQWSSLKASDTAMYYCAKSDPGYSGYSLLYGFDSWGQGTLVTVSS VL: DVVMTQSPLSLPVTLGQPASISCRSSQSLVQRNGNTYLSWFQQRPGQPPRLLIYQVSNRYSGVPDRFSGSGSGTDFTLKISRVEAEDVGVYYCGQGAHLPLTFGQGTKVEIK is below 0.02 ng/mL in terms of EC50.
yes

Please determine if Ab3 (antibody, human IgG1, V domains shown) VH: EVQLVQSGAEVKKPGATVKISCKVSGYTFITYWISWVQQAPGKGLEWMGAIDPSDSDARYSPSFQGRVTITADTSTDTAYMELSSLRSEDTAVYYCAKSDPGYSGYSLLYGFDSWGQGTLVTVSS VL: DVVMTQSPLSLPVTLGQPASISCRSSQSLVQRNGNTYLSWFQQRPGQSPRLLIYQVSNRYSGVPDRFSGSGSGTDFTLKISRVEAEDVGVYYCGQGAHLPLTFGQGTKVEIK is below 0.02 ng/mL in terms of EC50.
yes

Please determine if Ab57 (antibody, human IgG1, V domains shown) VH: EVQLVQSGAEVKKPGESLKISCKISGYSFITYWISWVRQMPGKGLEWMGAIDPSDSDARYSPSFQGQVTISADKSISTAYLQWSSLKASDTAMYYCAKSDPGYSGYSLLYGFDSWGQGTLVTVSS VL: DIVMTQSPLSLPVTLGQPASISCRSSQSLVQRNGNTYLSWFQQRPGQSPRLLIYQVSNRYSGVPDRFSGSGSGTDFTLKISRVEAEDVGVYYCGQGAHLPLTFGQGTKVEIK is below 0.02 ng/mL in terms of EC50.
yes
